Target: human SGLT1 (Homo sapiens, UniProt P13866)
Construct: expressed in transfected cells
Sequence (P13866 whole entry): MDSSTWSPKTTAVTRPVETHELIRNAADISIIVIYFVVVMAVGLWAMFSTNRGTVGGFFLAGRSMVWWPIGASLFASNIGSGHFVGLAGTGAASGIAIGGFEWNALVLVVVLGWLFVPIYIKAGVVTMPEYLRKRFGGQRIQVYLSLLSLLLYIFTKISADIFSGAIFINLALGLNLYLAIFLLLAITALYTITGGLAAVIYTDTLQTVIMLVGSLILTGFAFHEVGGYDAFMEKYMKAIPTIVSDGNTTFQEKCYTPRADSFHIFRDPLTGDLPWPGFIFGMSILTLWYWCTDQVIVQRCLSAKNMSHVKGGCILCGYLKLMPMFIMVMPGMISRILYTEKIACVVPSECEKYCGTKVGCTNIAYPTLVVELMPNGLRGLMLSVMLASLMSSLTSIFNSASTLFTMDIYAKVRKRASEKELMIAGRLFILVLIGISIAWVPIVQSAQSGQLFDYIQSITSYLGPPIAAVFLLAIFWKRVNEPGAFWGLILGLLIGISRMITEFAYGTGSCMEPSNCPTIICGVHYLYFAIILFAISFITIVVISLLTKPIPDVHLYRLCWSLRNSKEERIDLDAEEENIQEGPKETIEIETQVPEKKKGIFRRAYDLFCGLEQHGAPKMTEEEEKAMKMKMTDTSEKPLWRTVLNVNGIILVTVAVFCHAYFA
Test: Determination of SGLT1 inhibiting activity using human SGLT1 expressing cell ([14C]-α-methyl-D-glucopyranoside uptake)
Format: cell-based
Conditions: HEK-SGLT1 cells, 1 mM [14C]-α-methyl-D-glucopyranoside, 37° C., 30 min
Each item that follows carries a reported log10 of IC50.
MEASUREMENT_KIND: log10 of IC50 (log10 of the value in nM)

[[record]]
entry_smiles = "Cc1cc(CO)cc(O[C@@H]2O[C@H]([C@@H](C)O)[C@@H](O)[C@H](O)[C@H]2O)c1Cc1ccc(OC2CC2)cc1"
target_of_assay = "human SGLT1 (Homo sapiens, UniProt P13866)"
measurement_kind = "log10 of IC50"
experimental_value = 1.89

[[record]]
entry_smiles = "COc1ccc(Cc2ccc(CO)cc2O[C@@H]2O[C@H]([C@@H](C)O)[C@@H](O)[C@H](O)[C@H]2O)c(F)c1"
target_of_assay = "human SGLT1 (Homo sapiens, UniProt P13866)"
measurement_kind = "log10 of IC50"
experimental_value = 2.34

[[record]]
entry_smiles = "COc1ccc(Cc2c(C)cc(CO)cc2O[C@@H]2O[C@H]([C@@H](C)O)[C@@H](O)[C@H](O)[C@H]2O)cc1"
target_of_assay = "human SGLT1 (Homo sapiens, UniProt P13866)"
measurement_kind = "log10 of IC50"
experimental_value = 1.57

[[record]]
entry_smiles = "C=Cc1cc(CO)cc(O[C@@H]2O[C@H]([C@@H](C)O)[C@@H](O)[C@H](O)[C@H]2O)c1Cc1ccc(OC)cc1"
target_of_assay = "human SGLT1 (Homo sapiens, UniProt P13866)"
measurement_kind = "log10 of IC50"
experimental_value = 2.23

[[record]]
entry_smiles = "CCOc1ccc(Cc2c(F)cc(CO)cc2O[C@@H]2O[C@H]([C@@H](C)O)[C@@H](O)[C@H](O)[C@H]2O)cc1"
target_of_assay = "human SGLT1 (Homo sapiens, UniProt P13866)"
measurement_kind = "log10 of IC50"
experimental_value = 1.75

[[record]]
entry_smiles = "Cc1ccc(Cc2ccc(CO)cc2O[C@@H]2O[C@H]([C@@H](C)O)[C@@H](O)[C@H](O)[C@H]2O)cc1"
target_of_assay = "human SGLT1 (Homo sapiens, UniProt P13866)"
measurement_kind = "log10 of IC50"
experimental_value = 2.26

[[record]]
entry_smiles = "COc1ccc(Cc2ccc(CO)cc2O[C@@H]2O[C@H]([C@@H](C)O)[C@@H](O)[C@H](O)[C@H]2O)cc1F"
target_of_assay = "human SGLT1 (Homo sapiens, UniProt P13866)"
measurement_kind = "log10 of IC50"
experimental_value = 2.37

[[record]]
entry_smiles = "COc1ccc(Cc2c(Cl)cc(CO)cc2O[C@@H]2O[C@H]([C@@H](C)O)[C@@H](O)[C@H](O)[C@H]2O)cc1"
target_of_assay = "human SGLT1 (Homo sapiens, UniProt P13866)"
measurement_kind = "log10 of IC50"
experimental_value = 1.46

[[record]]
entry_smiles = "C[C@@H](O)[C@H]1O[C@@H](Oc2cc(CO)cc(Cl)c2Cc2ccc(OC3CC3)cc2)[C@H](O)[C@@H](O)[C@@H]1O"
target_of_assay = "human SGLT1 (Homo sapiens, UniProt P13866)"
measurement_kind = "log10 of IC50"
experimental_value = 1.91

[[record]]
entry_smiles = "COc1ccc(Cc2c(Cl)cccc2O[C@@H]2O[C@H]([C@@H](C)O)[C@@H](O)[C@H](O)[C@H]2O)cc1"
target_of_assay = "human SGLT1 (Homo sapiens, UniProt P13866)"
measurement_kind = "log10 of IC50"
experimental_value = 1.80

[[record]]
entry_smiles = "COc1ccc(Cc2c(F)cc(CO)cc2O[C@@H]2O[C@H]([C@@H](C)O)[C@@H](O)[C@H](O)[C@H]2O)cc1"
target_of_assay = "human SGLT1 (Homo sapiens, UniProt P13866)"
measurement_kind = "log10 of IC50"
experimental_value = 1.49

[[record]]
entry_smiles = "CCOc1ccc(Cc2ccc(CO)cc2O[C@@H]2O[C@H]([C@@H](C)O)[C@@H](O)[C@H](O)[C@H]2O)cc1"
target_of_assay = "human SGLT1 (Homo sapiens, UniProt P13866)"
measurement_kind = "log10 of IC50"
experimental_value = 2.63

[[record]]
entry_smiles = "Cc1cc(C)c(Cc2ccc(CCO)cc2)c(O[C@@H]2O[C@H]([C@@H](C)O)[C@@H](O)[C@H](O)[C@H]2O)c1"
target_of_assay = "human SGLT1 (Homo sapiens, UniProt P13866)"
measurement_kind = "log10 of IC50"
experimental_value = 2.30


====

Molecular target: human SGLT1 (Homo sapiens, UniProt P13866)
Assay: Determination of SGLT1 inhibiting activity using human SGLT1 expressing cell ([14C]-α-methyl-D-glucopyranoside uptake)
Details: HEK-SGLT1 cells, 1 mM [14C]-α-methyl-D-glucopyranoside, 37° C., 30 min
# IC50 values compiled below
MEASUREMENT_KIND: IC50 (µM)

[[record]]
compound = "CCc1ccc(Cc2ccc(CCO)cc2O[C@@H]2O[C@H]([C@@H](C)O)[C@@H](O)[C@H](O)[C@H]2O)cc1 [Example 67]"
target_of_assay = "human SGLT1 (Homo sapiens, UniProt P13866)"
experimental_value = 0.491

[[record]]
compound = "COc1ccc(Cc2c(C)cc(C)cc2O[C@@H]2O[C@H]([C@@H](C)O)[C@@H](O)[C@H](O)[C@H]2O)cc1 [Example 77]"
target_of_assay = "human SGLT1 (Homo sapiens, UniProt P13866)"
experimental_value = 0.252

[[record]]
compound = "CCc1ccc(Cc2ccc(N)cc2O[C@@H]2O[C@H](C(C)O)[C@@](C)(O)[C@H](O)[C@H]2O)cc1 (stereo partly shown) [Example 41]"
target_of_assay = "human SGLT1 (Homo sapiens, UniProt P13866)"
experimental_value = 0.087

[[record]]
compound = "CCOc1ccc(Cc2c(Cl)cc(CO)cc2O[C@@H]2O[C@H]([C@@H](C)O)[C@@H](O)[C@H](O)[C@H]2O)cc1 [Example 45]"
target_of_assay = "human SGLT1 (Homo sapiens, UniProt P13866)"
experimental_value = 0.118

[[record]]
compound = "CSc1ccc(Cc2ccc(CO)cc2O[C@@H]2O[C@H]([C@@H](C)O)[C@@H](O)[C@H](O)[C@H]2O)cc1 [Example 66]"
target_of_assay = "human SGLT1 (Homo sapiens, UniProt P13866)"
experimental_value = 0.214

[[record]]
compound = "C[C@@H](O)[C@H]1O[C@@H](Oc2cc(CO)ccc2Cc2ccc(C3CC3)cc2)[C@H](O)[C@@H](O)[C@@H]1O [Example 62]"
target_of_assay = "human SGLT1 (Homo sapiens, UniProt P13866)"
experimental_value = 0.155

[[record]]
compound = "C[C@@H](O)[C@H]1O[C@@H](Oc2cc(CO)cc(F)c2Cc2ccc(OC3CC3)cc2)[C@H](O)[C@@H](O)[C@@H]1O [Example 63]"
target_of_assay = "human SGLT1 (Homo sapiens, UniProt P13866)"
experimental_value = 0.068

[[record]]
compound = "C[C@@H](O)[C@H]1O[C@@H](Oc2cc(CO)ccc2Cc2ccc(OC3CC3)cc2)[C@H](O)[C@@H](O)[C@@H]1O [Example 60]"
target_of_assay = "human SGLT1 (Homo sapiens, UniProt P13866)"
experimental_value = 0.081

[[record]]
compound = "CCc1ccc(Cc2c(F)cc(CO)cc2O[C@@H]2O[C@H]([C@@H](C)O)[C@@H](O)[C@H](O)[C@H]2O)cc1 [Example 47]"
target_of_assay = "human SGLT1 (Homo sapiens, UniProt P13866)"
experimental_value = 0.066

[[record]]
compound = "COc1ccc(Cc2c(Cl)cc(C)cc2O[C@@H]2O[C@H]([C@@H](C)O)[C@@H](O)[C@H](O)[C@H]2O)cc1 [Example 43]"
target_of_assay = "human SGLT1 (Homo sapiens, UniProt P13866)"
experimental_value = 0.212

[[record]]
compound = "CC(C)Oc1ccc(Cc2c(F)cc(CO)cc2O[C@@H]2O[C@H]([C@@H](C)O)[C@@H](O)[C@H](O)[C@H]2O)cc1 [Example 75]"
target_of_assay = "human SGLT1 (Homo sapiens, UniProt P13866)"
experimental_value = 0.269

[[record]]
compound = "COc1ccc(Cc2c(Cl)cc(CO)cc2O[C@@H]2O[C@H]([C@H](C)O)[C@@H](O)[C@H](O)[C@H]2O)cc1 [Example 57]"
target_of_assay = "human SGLT1 (Homo sapiens, UniProt P13866)"
experimental_value = 0.217

[[record]]
compound = "C[C@@H](O)[C@H]1O[C@@H](Oc2cc(CO)cc(F)c2Cc2ccc(C3CC3)cc2)[C@H](O)[C@@H](O)[C@@H]1O [Example 88]"
target_of_assay = "human SGLT1 (Homo sapiens, UniProt P13866)"
experimental_value = 0.051

